# target.of.assay: Nonstructural protein 3 (Zika virus)
# method: Functional biochemical assay to identify treatments for viral infectious disease that targets Zika NS2B-NS3 protease. Utilizing a direct enzyme activity measurement method, reading the fluorescence intensity is used to characterize the relative potency of inhibitors as IC50.
# Parameters: species or system PRVABC59
Give measured log10 IC50 for each item. Keep answers brief.
Friendly reminder: values = log10 of IC50, unit µM.

Consider the reported log10 IC50 for these compounds:
N#Cc1ccc(CN)cc1NC(=O)c1cc(Cl)cc(NC(=O)OCc2ccccc2)c1: 1.27
OCC#C[C@H](Nc1ccc2c(c1)CNC2)c1cc(Cl)cc2[nH]ncc12: 0.04
O=C(O)c1cc(Cl)ccc1NS(=O)(=O)c1ccc(-c2cscn2)cc1: 1.63
NCc1ccc(F)c(NC(=O)c2cc(Cl)cc(NC(=O)OCc3ccccc3)c2)c1: 0.64

Consider the compound shown here: `O=C(Nc1cc(Cl)cc(C(=O)Nc2ccc(OC3CNC3)cc2)c1)OCc1ccccc1` What is its recorded log10 IC50? 0.75

###

# target.of.assay: UniProt:A0A024AXB9
# method: Functional biochemical assay to identify treatments for viral infectious disease that targets Zika NS2B-NS3 protease. Utilizing a direct enzyme activity measurement method, reading the fluorescence intensity is used to characterize the relative potency of inhibitors as IC50.
# Parameters: species or system PRVABC59
Give measured IC50 for each item. Keep answers brief.

O=C(Nc1cc(Cl)cc(-c2cc(C(=O)O)n(-c3ccc(F)cc3)n2)c1)OCc1ccccc1: 32.4 µM
Cc1c(C(=O)Nc2cc(-c3cccnc3)ccn2)cc(C(C)(C)C)n1C: > 25 µM
CNc1nc2cc(-c3ccc4c(c3)C[C@H](N)C4)ccc2o1: > 99.5 µM
NCc1cccc(NC(=O)c2cc(Cl)cc(Cl)c2OCc2ccccc2)c1: > 99.5 µM
Cc1oc(C2CC2)nc1C(=O)Nc1cc(-c2cccnc2)ccn1: > 25 µM
COC(=O)[C@H]1NCc2cc(NC(=O)c3cc(F)cc4[nH]ncc34)ccc21: 4.84 µM
O=C(Nc1cc(Cl)cc(C(=O)Nc2nccc([C@H]3CCCCN3)n2)c1)OCc1ccccc1: > 99.5 µM
C=CCNC(=O)C1(NC(=O)c2cccc3c2CC(=O)N3)CCCCC1: > 25 µM

Give me IC50 for each of these compounds, listed below.
1. NCc1cccc(NC(=O)c2cc(Cl)cc(N3CCCC3=O)c2)c1
2. Cc1ccc(S(=O)(=O)N2CCC(NS(=O)(=O)c3ccc(Cl)cc3C(=O)O)CC2)cc1

["11.5 µM", "> 99.5 µM"]

Give me IC50 for each of these compounds, listed below.
1. C=CC[C@H]1NCc2cc(NCc3cc(Cl)cc4[nH]ncc34)ccc21
2. NCc1cc(NC(=O)c2cc(Cl)cc(NC(=O)OCc3ccccc3)c2)cc(-c2csc(CC(=O)O)c2)c1
3. N#C[C@H](Nc1ccc(CC(=O)O)cn1)c1cc(Cl)cc(C2CC2)c1

> 25 µM
15 µM
> 99.5 µM

Give me IC50 for each of these compounds, listed below.
1. NCc1cc(NC(=O)c2cc(Cl)cc(NC(=O)OCc3ccccc3)c2)cc(-c2cccc(CC(=O)O)c2)c1
2. O=C(Cn1ccc2cccnc21)N1CC[C@H](c2c[nH]c3ccccc23)C1
3. CC(C)(C#N)c1cc(C(=O)Nc2cccc(CN)c2)cc(C(F)(F)F)c1

1. 39.6 µM
2. > 99.5 µM
3. > 99.5 µM

Give me IC50 for each of these compounds, listed below.
1. Clc1ccc2c(c1)ncn2Cc1ccc(-c2nn[nH]n2)cc1
2. CN(C(=O)OCc1ccccc1)[C@H](C(=O)Nc1cccc(CN)c1)c1ccc(OCc2ccccc2)cc1
3. O=C(O)c1cc(Cl)ccc1S(=O)(=O)Nc1ccc(S(=O)(=O)N2CCCCC2)cc1

1: > 99.5 µM; 2: 23.3 µM; 3: > 99.5 µM

Consider the compound shown here: `CCCN1C(=O)[C@](Nc2ccc3c(c2)CNC3)(C(N)=O)c2cc(Cl)ccc21` What is its recorded IC50? 21 µM

###

# target.of.assay: UniProt A0A024AXB9
# method: Functional biochemical assay to identify treatments for viral infectious disease that targets Zika NS2B-NS3 protease. Utilizing a direct enzyme activity measurement method, reading the fluorescence intensity is used to characterize the relative potency of inhibitors as IC50.
# Parameters: species or system PRVABC59
quantity.name: IC50

Consider the reported IC50 for these compounds:
COC(=O)N1CCc2cc(NC(=O)c3cc(C4CC4)n(C)c3C)ccc21: > 25 µM
O=C(Nc1ccc(F)nc1)Oc1ccccc1: > 100 µM
Cn1cc2cc(Cl)cc(C(=O)Nc3ccc4c(c3)CNC4)c2n1: 0.214 µM
CCNC(=O)c1ccnc(NC(=O)c2cc(C3CC3)n(C)c2C)c1: > 25 µM
Clc1ccc2[nH]cc(Cc3ccc(-c4nn[nH]n4)cc3)c2c1: > 99.5 µM

Please turn your attention to the following entry.
Consider the compound shown here: `CC1(N2CCC(NS(=O)(=O)c3ccc(Cl)cc3C(=O)O)CC2)CCCCC1` What is its recorded IC50? > 99.5 µM

###

# target.of.assay: Nonstructural protein 3 (Zika virus, UniProt A0A024AXB9)
# Sequence (A0A024AXB9 whole entry): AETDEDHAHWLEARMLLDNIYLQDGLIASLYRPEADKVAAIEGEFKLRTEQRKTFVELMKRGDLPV
# method: Functional biochemical assay to identify treatments for viral infectious disease that targets Zika NS2B-NS3 protease. Utilizing a direct enzyme activity measurement method, reading the fluorescence intensity is used to characterize the relative potency of inhibitors as IC50.
# Parameters: species or system PRVABC59
quantity.name: IC50

Consider the reported IC50 for these molecules:
O=C1Cc2c(cccc2C(=O)N[C@H]2C[C@H](OC(F)F)C2)N1: > 25 µM
c1nnc(SCCCSc2nncs2)s1: > 99.5 µM
NC[C@@H](NC(=O)c1cc(Cl)cc(NC(=O)OCc2ccccc2)c1)c1ccccc1: > 99.5 µM
O=C(O)c1cc(Cl)ccc1NS(=O)(=O)c1ccc(-c2cc[nH]n2)cc1: > 99.5 µM
CC1(C)C[C@H](C(=O)Nc2ccc3c(c2)C(=O)OC3)CCN1: > 25 µM

Give me IC50 for each of these molecules, listed below.
1. CC(C)c1cnc(COc2ccc(S(=O)(=O)Nc3ccc(Cl)cc3C(=O)O)cc2)o1
2. c1ccc2c([C@H]3CCN(C[C@H]4CCOC4)C3)c[nH]c2c1
3. NCc1cccc(NC(=O)[C@@H](NC(=O)OCc2ccccc2)c2ccc(OC[C@H]3CCCCO3)cc2)c1

["> 99.5 µM", "> 99.5 µM", "> 99.5 µM"]

Give me IC50 for each of these molecules, listed below.
1. CS(=O)(=O)NCc1ccc(CNC(=O)[C@@H](NC(=O)OCc2ccccc2)c2ccc(OCc3ccccc3)cc2)cc1
2. O=S(=O)(Nc1ccc2c(c1)CNC2)c1cccc2[nH]ncc12

1: > 99.5 µM; 2: > 25 µM

###

# target.of.assay: Nonstructural protein 3 (Zika virus)
# method: Functional biochemical assay to identify treatments for viral infectious disease that targets Zika NS2B-NS3 protease. Utilizing a direct enzyme activity measurement method, reading the fluorescence intensity is used to characterize the relative potency of inhibitors as IC50.
# Set-up: species or system PRVABC59
quantity.name: pIC50
Give bare numbers, as −log10 of the molar value.

Give me pIC50 for each of these compounds, listed below.
1. Cc1cc(CN)cc(NC(=O)c2cc(Cl)cc3[nH]ncc23)c1
2. CNC(=O)[C@]1(Nc2ccc3c(c2)CNC3)CCc2ccc(Cl)cc21
3. O=C(Nc1ccc2c(c1)CNC2)c1cc(F)cc(C2=CCOCC2)c1
4. NCC1(NC(=O)[C@H](NC(=O)OCc2ccccc2)c2ccc(OCc3ccccc3)cc2)CCCCC1

6.13
4.46
6.44
4.23

###

# target.of.assay: UniProt A0A024AXB9
# method: Functional biochemical assay to identify treatments for viral infectious disease that targets Zika NS2B-NS3 protease. Utilizing a direct enzyme activity measurement method, reading the fluorescence intensity is used to characterize the relative potency of inhibitors as IC50.
# Parameters: species or system PRVABC59
Give measured IC50 for each item. Keep answers brief.

O=C(Cn1sc2ccccc2c1=O)Nc1cccc(OCc2cn(CC(=O)Nc3ccccc3Oc3ccccc3)nn2)c1: 2.06 µM
Cc1c(C(=O)Nc2cc(CCCN)ccn2)cc(C2CCCCC2)n1C: > 99.5 µM
CCn1c(=O)c(N2C[C@H]3COC[C@@]3(C)C2)nc2ccccc21: > 99.5 µM
CC(C)(C)OC(=O)NCc1cc(Br)cc(NC(=O)c2cc(Cl)cc(NC(=O)OCc3ccccc3)c2)c1: > 99.5 µM
O=C(Nc1ccc2c(c1)CNC2)c1ccncc1: > 99.5 µM

Consider the compound shown here: `c1ccc2c(CN3CC(c4cscn4)C3)c[nH]c2c1` What is its recorded IC50? > 99.5 µM

###

Give measured pIC50 for each item. Keep answers brief.
# target.of.assay: Nonstructural protein 3 (Zika virus, UniProt A0A024AXB9)
# method: Functional biochemical assay to identify treatments for viral infectious disease that targets Zika NS2B-NS3 protease. Utilizing a direct enzyme activity measurement method, reading the fluorescence intensity is used to characterize the relative potency of inhibitors as IC50.
# Set-up: species or system PRVABC59
pIC50: −log10 of the molar value.

Consider the reported pIC50 for these molecules:
NCc1cccc(NC(=O)[C@H](NC(=O)OCc2ccccc2)c2ccc(OCc3ccccc3)c(Br)c2)c1: 5.30
COC(=O)c1n[nH]cc1CN1CCC(c2nc3ccccc3s2)CC1: < 4.00
CC1(C)CCC(F)(F)C[C@H]1C(=O)Nc1cccc(CN)c1: < 4.00
O=C(O)c1cc(Cl)ccc1NS(=O)(=O)c1ccc(-c2cccc(F)c2F)cc1: 4.59
O=C(O)COc1cccc(NC(=O)c2cc(Cl)cc(NC(=O)OCc3ccccc3)c2)c1: < 4.00

Give me pIC50 for each of these molecules, listed below.
1. CNC(=O)CN1CCC([C@@H](NC(=O)OCc2ccccc2)C(=O)Nc2cccc(CN)c2)CC1
2. CCc1ccc([C@@H](NC(=O)OCc2ccccc2)C(=O)Nc2cccc(CN)c2)cc1
3. O=S(=O)(c1c[nH]c2ccccc12)N1CCC(c2cnc3ccc[nH]c2-3)CC1
4. CCn1c(=O)c(N2CCCC[C@H](N3CCCC3)C2)nc2ccccc21

< 4.00
< 4.00
< 4.00
< 4.00
